Data origin, for the record: patent EP0414533A1

test system: UST; assay: In-vitro plant fungicide test; type: cell-based; settings: 6 ppm; Table IVb; read-out: % Control at (ppm) indicated UST
Structures can show the parent of a compound that is named as a salt.

compound	unit-text	inhibition of growth at 6 ppm
O=C(CN1C(=O)c2ccccc2C1=O)OCC#CI	%	0
CC(C)(C)OC(=O)NCC(=O)OCC#CI	%	100
C[C@H](N)C(=O)N[C@@H](COCc1ccccc1)C(=O)OCC#CI [Compound 19, trifluoroacetate]	%	100
CC(=O)NCC(=O)OCC#CI	%	100

---

system: Pythium ultimum (PYU); assay: In-vitro plant fungicide test; assay type: cell-based; conditions: Globisporangium ultimum; 6 ppm; Table IVb; read-out: % Control at (ppm) indicated PYU
Structures can show the parent of a compound that is named as a salt.
Entries and their measured inhibition of growth at 6 ppm follow.

molecule	inhibition of growth at 6 ppm
C[C@H](N)C(=O)N[C@@H](COCc1ccccc1)C(=O)OCC#CI [Compound 19, trifluoroacetate]	0%
O=C(CN1C(=O)c2ccccc2C1=O)OCC#CI [Compound 30, N-phthaloylglycine iodopropargyl ester]	100%
CC(=O)NCC(=O)OCC#CI [Compound 28, N-acetylglycine iodopropargyl ester]	100%
CC(C)(C)OC(=O)NCC(=O)OCC#CI [Compound 1]	100%
